- Test Target: UniProt:P28335
- Sequence (P28335 33-458): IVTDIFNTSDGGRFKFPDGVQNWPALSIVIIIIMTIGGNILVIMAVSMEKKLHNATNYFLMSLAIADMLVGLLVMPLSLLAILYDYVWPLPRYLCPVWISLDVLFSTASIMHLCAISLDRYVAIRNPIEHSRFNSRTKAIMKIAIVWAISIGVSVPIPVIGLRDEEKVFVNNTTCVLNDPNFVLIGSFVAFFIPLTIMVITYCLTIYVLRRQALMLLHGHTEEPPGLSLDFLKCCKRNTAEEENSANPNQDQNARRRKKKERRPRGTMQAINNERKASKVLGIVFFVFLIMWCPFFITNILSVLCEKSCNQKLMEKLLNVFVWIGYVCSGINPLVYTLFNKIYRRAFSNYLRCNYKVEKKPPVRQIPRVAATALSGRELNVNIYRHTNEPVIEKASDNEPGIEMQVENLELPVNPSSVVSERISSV
- Sequence (P32121 whole entry partner): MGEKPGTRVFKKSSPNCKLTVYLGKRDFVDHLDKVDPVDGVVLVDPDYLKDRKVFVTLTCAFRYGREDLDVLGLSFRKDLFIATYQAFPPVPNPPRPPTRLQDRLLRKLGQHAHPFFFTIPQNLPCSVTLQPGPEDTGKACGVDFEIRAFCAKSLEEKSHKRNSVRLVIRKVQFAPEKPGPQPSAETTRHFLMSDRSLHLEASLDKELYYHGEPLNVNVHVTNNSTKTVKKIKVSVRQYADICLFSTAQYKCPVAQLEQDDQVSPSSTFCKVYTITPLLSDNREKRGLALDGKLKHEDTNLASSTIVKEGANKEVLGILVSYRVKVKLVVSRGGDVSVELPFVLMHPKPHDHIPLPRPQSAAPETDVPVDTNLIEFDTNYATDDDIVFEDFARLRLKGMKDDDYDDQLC
- Procedure Details: Human 5-HT2C functional assay (beta-arrestin2 recruitment, U2OS_HTR2C_β-Arrestin cells)
- Experimental Setup: beta-arrestin2 recruitment, U2OS_HTR2C_β-Arrestin cells, 1.5 h incubation; read-out: EC50 5-HT2C (potency in functional assay)
pEC50: −log10 of the molar value. Structures can show the parent of a compound that is named as a salt.
Listed below: pEC50 values for each entry.

These solved cases illustrate the format of a correct answer.
molecule="COc1nc(OC[C@H]2CCC(F)(F)C2)c(F)cc1CNC(=O)[C@@H]1CCCN1 [Example 32]" measured_endpoint=pEC50 result="> 7.70"
molecule="COc1nc(N2CCC(CC(F)(F)F)C2)c(F)cc1CNC(=O)[C@@H]1CCCN1 (stereo partly shown) [Example 187]" measured_endpoint=pEC50 result="6.70 to 7.70"
molecule="COc1nc(OCC2CC2(F)F)c(F)cc1CNC(=O)[C@@H]1CCCN1 (stereo partly shown) [Example 41]" measured_endpoint=pEC50 result="> 7.70"
molecule="COc1nc(OC2CCC(F)(F)C2)c(F)cc1CN(C)C(=O)[C@@H]1CCCN1 (stereo partly shown) [Example 123, Hydrochloride]" measured_endpoint=pEC50 result="> 7.70"
molecule="COc1nc(OC2CCC(C(C)(F)F)CC2)c(F)cc1CNC(=O)[C@@H]1CCCN1 (single isomer, unassigned; isomer 2) [Example 74]" measured_endpoint=pEC50 result="> 7.70"

Quick one: pEC50 for COc1nc(OC(C)C(F)(F)C(F)(F)F)c(F)cc1CNC(=O)[C@@H]1CCCN1 (stereo partly shown) [Example 50] ?
> 7.70

Here is the next molecule: COc1nc(OC2CC3C(C2)C3(F)F)c(F)cc1CNC(=O)[C@@H]1CCCN1 (stereo partly shown) [Example 54]
> 7.70

Now this one: COc1nc(OCC(F)(F)C(F)(F)C(F)(F)F)c(F)cc1CN(C)C(=O)[C@@H]1CCCN1 [Example 117, Hydrochloride]
> 7.70

And then COc1nc(OC2CC(F)(F)C2)cnc1CNC(=O)[C@@H]1CCCN1 [Example 107] , what is it?
6.00 to 6.70

Now the same for COc1nc(OC2CCC(C(F)(F)F)CC2)c(F)cc1CNC(=O)[C@@H]1CCN1C (stereo partly shown) [Example 38]
6.70 to 7.70

Entry COc1nc(OCC2CC(F)(F)C2)c(F)cc1CNC(=O)[C@@H]1CCCN1 [Example 42] please
> 7.70

Please do the same for COc1nc(OC2CCC(F)(F)CC2)c(F)cc1CNC(=O)[C@@H]1C=CCN1C [Example 21] as well.
6.70 to 7.70

Also COc1nc(OCC2CCC(F)(F)C2)c(F)cc1CNC(=O)[C@@H]1CCCN1 (stereo partly shown) [Example 6] , if possible.
> 7.70
